- TARGET: wild-type Choristoneura fumiferana EcR (CfEcR-DEF) (Choristoneura fumiferana, UniProt O77255)
- Sequence (O77255 219-541): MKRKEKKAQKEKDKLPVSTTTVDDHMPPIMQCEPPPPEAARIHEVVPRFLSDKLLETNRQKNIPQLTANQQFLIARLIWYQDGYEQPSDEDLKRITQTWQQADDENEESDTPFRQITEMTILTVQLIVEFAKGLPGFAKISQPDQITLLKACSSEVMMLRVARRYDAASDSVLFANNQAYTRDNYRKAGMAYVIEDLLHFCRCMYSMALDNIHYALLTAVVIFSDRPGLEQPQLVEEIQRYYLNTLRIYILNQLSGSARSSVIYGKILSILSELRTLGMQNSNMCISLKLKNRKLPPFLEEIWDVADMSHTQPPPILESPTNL
- Sequence (P28702 299-449 partner): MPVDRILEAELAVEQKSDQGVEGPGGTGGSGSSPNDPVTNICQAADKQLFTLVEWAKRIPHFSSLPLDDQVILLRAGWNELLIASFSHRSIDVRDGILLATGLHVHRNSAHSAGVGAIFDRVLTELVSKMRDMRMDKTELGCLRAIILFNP
- RUN_DESCRIPTION: Two-hybrid gene switch assay, wild-type CfEcR-DEF (GAL4-EcR / VP16-RXR-USP chimera, luciferase) in NIH3T3 cells
- CONDITION_DESCRIPTION: NIH3T3, 48 h, read-out: rel max FI (diacylhydrazine), CF
Below, each of the compounds is paired with its reported Emax value.
Numbers only; they are read as %.

COC(C)(C)CCC(O)C(C)(O)C1CCC2(O)C3=CC(=O)C4CC(O)C(O)CC4(C)C3CCC12C (stereo not shown) [20E-25-methyl ether]
0.13
CCCO[C@H](CCC(C)(C)O)[C@](C)(O)C1CC[C@@]2(O)C3=CC(=O)C4C[C@@H](O)[C@@H](O)CC4(C)C3CCC12C (stereo partly shown) [20E-22-n-propyl ether]
0.5

Could you now look at the following compound, please?
### Prompt // Emax lookup, key: CCO[C@H](CCC(C)(C)O)[C@](C)(O)C1CC[C@@]2(O)C3=CC(=O)C4C[C@@H](O)[C@@H](O)CC4(C)C3CCC12C (stereo partly shown) [20E-22-ethyl ether]
### Response 77
